targetSystem: Na^+/K^+ ATPase
Construct: enzyme isolated from porcine cerebral cortex
procedureText: ATPase enzymatic activity assay (Sigma) with isolated porcine cerebral cortex enzyme
readout: IC50 (nM)
Just the number in nM, nothing appended.

IN: Look up IC50 with Na^+/K^+ ATPase for this molecule: "C[C@]12CCC(=NOCCN)C[C@@H]1C(=O)C[C@@H]1[C@@H]2CC[C@]2(C)C(=O)CC[C@@H]12"
OUT: 408

The values you see were collected from paper PMC5029711.
